test system: Mycobacterium tuberculosis; experiment: Antimycobacterial activity against multi-drug resistant Mycobacterium tuberculosis 8666/2010 after 14 days; format: functional; conditions: 8666/2010, 336 h
Parameter: MIC99 (µM)
Please give a number only; it is taken to be in µM.

Problem: Assign MIC99 to the following record: O=[N+]([O-])c1cc(-c2nnc(SCc3ccccc3)n2Cc2ccccc2)cc([N+](=O)[O-])c1
Result: 0.03

Problem: Provide only the value of recorded MIC99 for O=[N+]([O-])c1cc(CSc2nnc(-c3ccccc3)n2Cc2ccccc2)cc([N+](=O)[O-])c1
Result: 2

Problem: Could you please provide reported MIC99 for CCCCCCn1c(SCc2cc([N+](=O)[O-])cc([N+](=O)[O-])c2)nnc1-c1ccccc1 ? Thanks!
Result: 1

Here is another compound to look at.
Problem: Please look at this compound and report its MIC99: CCCSc1nnc(-c2cc([N+](=O)[O-])cc([N+](=O)[O-])c2)n1Cc1ccccc1
Result: 0.06
